Tested on: Saccharomyces cerevisiae;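 note: PSI is a weighted mean of sequencing reads over stability bins, variants kept only with over 10 reads, mCherry proximal and sfGFP distal, peptide attached via GGGS linker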
Assay: protein stability index of tFT-peptide fusion (C-terminal peptide) (PSI (0-1 scale)); higher = more stable (slower turnover)
Settings: genetic background: wild type; temperature: 30 C
Entries annotated with measured protein stability index

sequence data: ARFYPPLPTDSL
protein stability index: 0.708
--
sequence data: PPSPPDPLLCSP
protein stability index: 0.702
--
sequence data: PRSSLPPPPSLP
protein stability index: 0.686
--
sequence data: VSVGWWVGFWGV
protein stability index: 0.697
--
sequence data: YVKSIRRRDYIW
protein stability index: 0.694
--
sequence data: VDSCASVGQGGL
protein stability index: 0.702

For the sequence KRKKEKNQPTKR , what protein stability index is on record?
0.697
